Test system: NS5A chimeric genotype 1b Con1 replicon with genotype 3a S52 strain NS5A gene
Assay: Replicon assay, genotype 3a NS5A chimera
Assay type: cell-based, HCV
Conditions: Hepatitis C virus, read-out: 3a (s), (s); activity range
Recorded EC50 for the following compounds
endpoint-label: EC50

{"compound": "CC[C@H]1CC[C@@H](c2ncc(-c3ccc4c(c3)COc3cc5c(ccc6nc([C@@H]7CC[C@H](C)N7C(=O)[C@@H](NC(=O)OC)[C@@H](C)OC)[nH]c65)cc3-4)[nH]2)N1C(=O)[C@@H](NC(=O)OC)C1CCOCC1", "recorded-measurement": "< 0.1 nM"}
{"compound": "COC(=O)N[C@H](C(=O)N1[C@@H](C)CC[C@H]1c1ncc(-c2ccc3c(c2)COc2cc4c(ccc5nc([C@@H]6CC[C@H](C)N6C(=O)[C@@H](NC(=O)OC)[C@@H](C)OC(F)F)[nH]c54)cc2-3)[nH]1)C(C)C", "recorded-measurement": "< 0.1 nM"}
{"compound": "COC(=O)N[C@H](C(=O)N1C[C@@H](C)C[C@H]1c1nc2ccc3cc4c(cc3c2[nH]1)OCc1cc(-c2cnc([C@@H]3CC[C@H](C)N3C(=O)[C@@H](NC(=O)OC)[C@@H](C)OC)[nH]2)ccc1-4)C(C)C", "recorded-measurement": "< 0.1 nM"}
{"compound": "COC(=O)N[C@H](C(=O)N1[C@@H](C)CC[C@H]1c1ncc(-c2ccc3c(c2)COc2cc4c(ccc5nc([C@@H]6C[C@H](C)CN6C(=O)[C@@H](NC(=O)OC)[C@H](C)OC)[nH]c54)cc2-3)[nH]1)C(C)C", "recorded-measurement": "0.1 to 0.999 nM"}
{"compound": "COC(=O)NC(C(=O)N1[C@@H](C)CC[C@H]1c1nc2ccc3cc4c(cc3c2[nH]1)OCc1cc(-c2cnc([C@@H]3CC[C@H](C)N3C(=O)[C@@H](NC(=O)OC)C3CCOCC3)[nH]2)ccc1-4)C(C)C (some centres unmarked)", "recorded-measurement": "< 0.1 nM"}
